Listing of entries alongside the reported Combin. (100 μM): percentage Colony Forming Units (CFU's) per biofilm.
System: methicillin resistant S. aureus Mu50 strain (S. aureus ATCC700699) biofilm
METHOD_DESCRIPTION: Biofilm susceptibility to vancomycin, combination treatment regimen (mature biofilm treated with compound plus vancomycin)
Type: cell-based
CONDITION_DESCRIPTION: compound 100 μM together with VAN 20 μg/ml on mature biofilm; compared to the untreated (negative) control
PARAMETER_MEASURED: Combin. (100 μM): percentage Colony Forming Units (CFU's) per biofilm

1. O=C(NC[C@]1(O)CO[C@H](CNC(=O)c2ccccc2-c2ccccc2)[C@H]1O)c1ccccc1 :: 13.23 percentage
2. Cc1ccc(C(=O)NC[C@H]2OC[C@@](O)(CNC(=O)c3ccccc3)[C@@H]2O)cc1C :: 65.66 percentage
3. O=C(NC[C@H]1OC[C@@](O)(CNC(=O)c2ccccc2)[C@@H]1O)c1cccc(-c2ccccc2)c1 :: 32.61 percentage
4. O=C(NC[C@]1(O)CO[C@H](CNC(=O)c2ccc(Cl)cc2Cl)[C@H]1O)c1ccccc1 :: 11.25 percentage
5. O=C(NC[C@]1(O)CO[C@H](CNS(=O)(=O)c2ccccc2)[C@H]1O)c1ccccc1 :: 31.29 percentage
6. O=C(NC[C@H]1OC[C@@](O)(CNC(=O)c2ccccc2)[C@@H]1O)c1ccncc1 :: 13.89 percentage
7. O=C(Cc1ccccc1)NC[C@H]1OC[C@@](O)(CNC(=O)c2ccccc2)[C@@H]1O :: 58.95 percentage
8. CC(C)(C)C(=O)NC[C@H]1OC[C@@](O)(CNC(=O)c2ccccc2)[C@@H]1O :: 28.64 percentage
9. O=C(NC[C@]1(O)CO[C@H](CNC(=O)c2c(Cl)cccc2Cl)[C@H]1O)c1ccccc1 :: 43.74 percentage
10. O=C(NC[C@H]1OC[C@@](O)(CNC(=O)c2ccccc2)[C@@H]1O)c1cccc(C(F)(F)F)c1 :: 12.34 percentage
11. O=C(NC[C@H]1OC(O)[C@@](O)(CNC(=O)c2cccc(O)c2)[C@@H]1O)c1cccc(O)c1 (stereo partly drawn) :: 27.23 percentage
12. O=C(NC[C@]1(O)CO[C@H](CNC(=O)c2cccnc2Cl)[C@H]1O)c1ccccc1 :: 65.56 percentage
13. O=C(NC[C@H]1OC(O)[C@@](O)(CNC(=O)c2ccccc2)[C@@H]1O)c1ccccc1 (stereo partly drawn) :: 56.02 percentage
14. O=C(NC[C@H]1OC[C@@](O)(CNC(=O)c2ccccc2)[C@@H]1O)c1ccc(Cl)cc1 :: 8.577 percentage
15. O=C(NC[C@H]1OC[C@@](O)(CNC(=O)c2ccccc2)[C@@H]1O)c1ccc(F)cc1 :: 14.05 percentage

###

System: methicillin resistant S. aureus Mu50 strain (S. aureus ATCC700699) biofilm
METHOD_DESCRIPTION: Biofilm susceptibility to vancomycin, combination treatment regimen (mature biofilm treated with compound plus vancomycin)
Type: cell-based
CONDITION_DESCRIPTION: compound 100 μM together with VAN 20 μg/ml on mature biofilm; compared to the untreated (negative) control
Label met when Combin. (100 μM): percentage Colony Forming Units (CFU's) per biofilm >= 30 percentage; otherwise not met.

1. CS(=O)(=O)NC[C@H]1OC[C@@](O)(CNC(=O)c2ccccc2)[C@@H]1O :: met
2. O=C(NC[C@H]1OC[C@@](O)(CNC(=O)c2cc(O)c(O)c(O)c2)[C@@H]1O)c1cc(O)c(O)c(O)c1 :: met
3. COc1ccc(C(=O)NC[C@H]2OC[C@@](O)(CNC(=O)c3ccccc3)[C@@H]2O)cc1 :: not met
4. O=C(NC[C@]1(O)CO[C@H](CNC(=O)c2cnccc2Cl)[C@H]1O)c1ccccc1 :: met
5. CN(C)c1ccc(C(=O)NC[C@H]2OC[C@@](O)(CNC(=O)c3ccccc3)[C@@H]2O)cc1 :: not met
6. O=C(NC[C@]1(O)CO[C@H](CNC(=S)Nc2ccccc2)[C@H]1O)c1ccccc1 :: not met

Origin of measurements: patent US10023602B2
